Recorded logD by entry
Assay: Lipophilicity, logD of the compound at pH 7.3 by HPLC analysis
Format: physicochemical
Settings: buffer
Hey, just send me the number, nothing else.

These solved cases illustrate the format of a correct answer.
{"smiles.text": "COc1ccc(-c2ccc(C(=O)O)cc2C)cc1-c1cnc(N(C)C)nc1CN1C(=O)O[C@H](c2ccnc(C(F)(F)F)c2)[C@@H]1C", "value.reported": 3.2}
{"smiles.text": "COc1ccc([C@H]2CC[C@H](C(=O)O)CC2)cc1-c1ccc(C(F)(F)F)cc1[C@@H]1CC[C@H]2[C@@H](c3cc(C(F)(F)F)cc(C(F)(F)F)c3)OC(=O)N12", "value.reported": 5.6}
{"smiles.text": "COc1ccc(-c2c(C)cc(C(=O)O)cc2C)cc1-c1ncc(C(F)(F)F)cc1[C@@H]1CC[C@H]2[C@@H](c3cc(C(F)(F)F)cc(C(F)(F)F)c3)OC(=O)N12", "value.reported": 4.8}
{"smiles.text": "COc1cc(F)c(-c2ccc(C(=O)O)cc2C)cc1-c1ccc(C(F)(F)F)cc1[C@@H]1CC[C@H]2[C@@H](c3cc(C(F)(F)F)cc(C(F)(F)F)c3)OC(=O)N12", "value.reported": 5.5}
{"smiles.text": "CCc1ncc(-c2cc(-c3ccc(C(=O)O)cc3C)ccc2OC)c(CN2C(=O)O[C@H](c3cc(C(F)(F)F)cc(C(F)(F)F)c3)[C@@H]2C)n1", "value.reported": 4.5}

Please find the next compound below.
GET /values?readout=logD&item= `COc1ccc([C@H]2CCC(=O)N[C@@H]2C)cc1-c1ccc(C(F)(F)F)cc1[C@@H]1CC[C@H]2[C@@H](c3cc(C(F)(F)F)cc(C(F)(F)F)c3)OC(=O)N12`
5.9

---

Assay: Lipophilicity, logD of the compound at pH 7.3 by HPLC analysis
Format: physicochemical
Conditions: buffer
assay.metric: logD
Hey, just send me the number, nothing else.

GET /values?readout=logD&item= `COc1ncc(-c2ccc(C(=O)O)cc2C)cc1-c1ccc(C(F)(F)F)cc1CN1C(=O)O[C@H](c2cc(C(F)(F)F)cc(C(F)(F)F)c2)[C@@H]1C`
5.4

Thanks! And `COc1ncc(-c2c(C)cc(C(=O)O)cc2C)cc1-c1ccc(C(F)(F)F)nc1[C@@H]1CC[C@H]2[C@@H](c3cc(C(F)(F)F)cc(C(F)(F)F)c3)OC(=O)N12` ?
5.8

Thanks! And `COc1ccc(-c2ccc(C(=O)O)cc2C)cc1-c1cnc(N(C)C)nc1CN1C(=O)O[C@H](c2ccc(OC(F)(F)F)cc2)[C@@H]1C` ?
4.3

Thanks! And `COc1cc(F)c(C(C)C)cc1-c1ccc(C(F)(F)F)cc1[C@@H]1CC[C@H]2[C@@H](c3cc(C(F)(F)F)cc(C(F)(F)F)c3)OC(=O)N12` ?
7.1

Thanks! And `COc1ccc([C@@H]2C[C@@H](O)[C@@H](O)C2)cc1-c1ccc(C(F)(F)F)cc1[C@@H]1CC[C@H]2[C@@H](c3cc(C(F)(F)F)cc(C(F)(F)F)c3)OC(=O)N12` ?
5.7

Thanks! And `COc1ccc(-c2ccc(C(=O)O)cc2C)cc1-c1cnc(N(C)C)nc1CN1C(=O)O[C@H](c2cccc(C(F)(F)F)n2)[C@@H]1C` ?
3.8

Thanks! And `COc1ccc(-c2ccc(C(=O)O)cc2C)cc1-c1cnc(C(C)(F)F)nc1CN1C(=O)O[C@H](c2cc(C(F)(F)F)cc(C(F)(F)F)c2)[C@@H]1C` ?
4.6

Thanks! And `COc1ncc(-c2ccc(C(=O)O)cc2C)cc1-c1ncc(C(F)(F)F)cc1[C@@H]1CC[C@H]2[C@@H](c3cc(C(F)(F)F)cc(C(F)(F)F)c3)OC(=O)N12` ?
4.5

Thanks! And `COc1ccc(-c2ccc(C(=O)O)cc2C)cc1-c1cnc(N(C)C)nc1CN1C(=O)O[C@H](c2cc(Cl)cc(C(F)(F)F)c2)[C@@H]1C` ?
4.6

Thanks! And `COc1ncc(-c2ccc(C(=O)O)cc2C)cc1-c1cnc(C(F)(F)F)nc1CN1C(=O)O[C@H](c2cc(C(F)(F)F)cc(C(F)(F)F)c2)[C@@H]1C` ?
4.9

Thanks! And `COc1ncc(-c2ccc(C(=O)O)cc2C)cc1-c1ccc(C(F)(F)F)cc1[C@@H]1CC[C@H]2[C@@H](c3cccc(C(F)(F)F)c3)OC(=O)N12` ?
4.7

Thanks! And `COc1ncc(-c2ccc(C(=O)O)cc2C)cc1-c1c(C)cc(C(F)(F)F)cc1[C@@H]1CC[C@H]2[C@@H](c3cc(C(F)(F)F)cc(C(F)(F)F)c3)OC(=O)N12` ?
5.7

Thanks! And `COc1cc(F)c(C(C)C)cc1-c1ccc(C(F)(F)F)cc1[C@@H]1CC[C@H]2[C@@H](c3cc(Cl)cc(Cl)c3)OC(=O)N12` ?
6.1

Thanks! And `COc1ccc(CCC(=O)O)cc1-c1ccc(C(F)(F)F)cc1[C@@H]1CC[C@H]2[C@@H](c3cc(C(F)(F)F)cc(C(F)(F)F)c3)OC(=O)N12` ?
4.7

Thanks! And `COc1cc(F)c(C(C)C)cc1-c1ccc(C(F)(F)F)cc1[C@@H]1CC[C@H]2[C@@H](c3cc(C)cc(C(F)(F)F)c3)OC(=O)N12` ?
7

Thanks! And `COc1ccc(-c2ccc(C(=O)O)cc2C)cc1-c1cnc(N2CC(F)C2)nc1CN1C(=O)O[C@H](c2cc(C(F)(F)F)cc(C(F)(F)F)c2)[C@@H]1C` ?
4.6

Thanks! And `COc1ccc(-c2ccc(C(=O)O)cc2C)cc1-c1cnc(N(C)C)nc1CN1C(=O)O[C@H](c2cccc(Cl)c2)[C@@H]1C` ?
4

Thanks! And `COc1cc(F)c(-c2ccc(C(=O)O)cc2C)cc1-c1cnc(C2CC2)cc1[C@@H]1CC[C@H]2[C@@H](c3cc(C(F)(F)F)cc(C(F)(F)F)c3)OC(=O)N12` ?
4.8

Thanks! And `COc1ccc(-c2ccc(C(=O)O)cc2C)cc1-c1cnc(N(C)C)nc1CN1C(=O)O[C@H](c2cccc(C(F)(F)F)c2)[C@@H]1C` ?
4.1

Thanks! And `COc1ncc(-c2ccc(C(=O)O)cc2C)cc1-c1cnc(C(F)(F)F)cc1CN1C(=O)O[C@H](c2cc(C(F)(F)F)cc(C(F)(F)F)c2)[C@@H]1C` ?
4.5

Thanks! And `COc1cc(F)c(-c2ccc(C(=O)O)cc2C)cc1-c1ccc(C(F)(F)F)cc1[C@@H]1CC[C@H]2[C@@H](c3cc(F)cc(C(F)(F)F)c3)OC(=O)N12` ?
5.1

Thanks! And `COc1cc(F)c(C(C)C)cc1-c1cnc(N(C)C)nc1[C@@H]1CC[C@H]2[C@@H](c3cc(C(F)(F)F)cc(C(F)(F)F)c3)OC(=O)N12` ?
7
